# Target Or System: Streptavidin (Streptomyces avidinii) (UniProt P22629)
# Sequence (P22629 whole entry, looked up): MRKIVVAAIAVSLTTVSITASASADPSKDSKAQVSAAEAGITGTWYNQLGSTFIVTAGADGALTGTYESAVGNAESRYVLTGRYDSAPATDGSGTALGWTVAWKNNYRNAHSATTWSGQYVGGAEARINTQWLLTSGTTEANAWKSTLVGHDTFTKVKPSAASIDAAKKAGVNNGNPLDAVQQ
# Assay Comment: streptavidin binders on small-molecule microarray, primary screen, artefact control for SMM compound annotation, biophysical, 635/667 nm fluorescence (AID 1147);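 further: signal reflects streptavidin binding to arrayed compounds as a control protein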
# Condition Notes: streptavidin binding, higher = more signal
Where composite z-score equals or exceeds 0.5, the correct label is Met; where it does not, the label is Not met.

Q) State whether the measured composite z-score reaches 0.5, counting equality as reaching it, for COCCOC(=O)N1C(=O)[C@@]2(c3cc(C#CCNC(N)=O)ccc31)[C@H](c1ccc(O)cc1)N1[C@H](c3ccccc3)[C@H](c3ccccc3)OC(=O)[C@H]1[C@@H]2C(N)=O
A) Not met

Q) State whether the measured composite z-score reaches 0.5, counting equality as reaching it, for CC(=O)NCCCC[C@@H]1NC(=O)[C@H]2C[C@@H](C(=O)NCCCCCNC(=O)CS)[C@@H](c3cccc(OCCO)c3)N2C1=O
A) Not met

Q) State whether the measured composite z-score reaches 0.5, counting equality as reaching it, for C=C(COC)/C(=C/C[C@@H](OC(C)=O)c1ccc(CO)o1)c1cc(C(=O)OC)ccc1OC
A) Not met

Q) State whether the measured composite z-score reaches 0.5, counting equality as reaching it, for COc1ccc(C#Cc2ccc3c(c2)[C@]2(C(=O)N3)[C@H](c3ccc(OCCO)cc3)N3[C@H](c4ccccc4)[C@H](c4ccccc4)OC(=O)[C@H]3[C@@H]2C(=O)N2CCc3cc(OC)c(OC)cc3C2)cc1
A) Met

Q) State whether the measured composite z-score reaches 0.5, counting equality as reaching it, for COCCOC(=O)N1C(=O)[C@@]2(c3cc(C#CC4(O)CCCCCC4)ccc31)[C@H](C(=O)N1CCN(c3ncccn3)CC1)[C@H]1C(=O)O[C@H](c3ccccc3)[C@H](c3ccccc3)N1[C@@H]2c1ccccc1OCCO
A) Not met

Q) State whether the measured composite z-score reaches 0.5, counting equality as reaching it, for CC(=O)N1CC(C(O)C2C=CC3C(=O)NC(=O)C3N2Nc2ccc(Cl)cc2Cl)c2ccccc21 (stereo unspecified)
A) Met

====

# Assay Comment: RPMI8226 myeloma cell viability, profiling panel, resazurin fluorescence, basal, 24 h, PK04 Diversity Set (AID 1180);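 further: RPMI8826 multiple myeloma cell line at 5000 cells per well; test concentration not given here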
# Condition Notes: higher = more signal
Where z-score equals or exceeds 0.2, the correct label is true (1); where it does not, the label is false (0).

Q) State whether the measured z-score reaches 0.2, counting equality as reaching it, for COc1cc(C(O)C2C=CC3C(=O)N(Cc4ccccc4)C(=O)C3N2n2cnnc2)cc(OC)c1OC (stereo not drawn)
A) false (0)

Q) State whether the measured z-score reaches 0.2, counting equality as reaching it, for COc1ccc([Si](C)(C)[C@@H]2[C@@H](CCn3cc([C@H](O)c4ccccc4)nn3)O[C@]3(C(=O)N(c4ccccc4)c4ccccc43)[C@H]2C)cc1
A) false (0)

Q) State whether the measured z-score reaches 0.2, counting equality as reaching it, for COc1ccc([Si](C)(C)[C@@H]2[C@@H](CC(=O)N3Cc4ccccc4C[C@H]3CO)O[C@]3(C(=O)N(c4ccccc4)c4ccccc43)[C@H]2C)cc1
A) false (0)

Q) State whether the measured z-score reaches 0.2, counting equality as reaching it, for O=c1cccc(-c2ccco2)o1
A) false (0)

Q) State whether the measured z-score reaches 0.2, counting equality as reaching it, for CCOC(=O)C1=C[C@@H](C(C)(C)C)N(S(=O)(=O)c2ccc(C)cc2)[C@H]1c1ccc(C)cc1
A) false (0)

Q) State whether the measured z-score reaches 0.2, counting equality as reaching it, for COCC1C2CC[C@H]3C(OCc4ccc(OC)cc4)OC[C@]4(C)[C@H]3C2=C(CN4C(=O)OC(C)(C)C)[C@H](C)C1COC (stereo partly drawn)
A) false (0)

Q) State whether the measured z-score reaches 0.2, counting equality as reaching it, for CC(C)N1CC=CC23O[C@@H]4/C=C\CCCOC(=O)C4[C@H]2C(=O)N(CCCCCCO)[C@@H]3C1=O (stereo partly drawn)
A) true (1)

Q) State whether the measured z-score reaches 0.2, counting equality as reaching it, for O=C1O[C@H](c2ccccc2)[C@H](c2ccccc2)N2[C@H]1[C@@H](C(=O)Nc1nc3ccccc3s1)[C@]1(C(=O)Nc3ccc(C#CC4=CCCCC4)cc31)[C@H]2c1ccc(O)cc1
A) true (1)

Q) State whether the measured z-score reaches 0.2, counting equality as reaching it, for C=C(CCCC)C(=O)CC[C@H](OC(=O)c1ccccc1-c1ccccc1C(=O)O)c1ccccc1OCCO
A) false (0)

Q) State whether the measured z-score reaches 0.2, counting equality as reaching it, for C[C@]1(C(=O)O)c2ccccc2C(=O)N(Cc2ccc(OC(F)(F)F)cc2)[C@H]1c1ccc(CO)cc1
A) true (1)

Q) State whether the measured z-score reaches 0.2, counting equality as reaching it, for CN1C(=O)C2C=CC(C(O)c3ccc(I)cc3)N(Nc3ccccc3)C2C1=O (stereo not drawn)
A) false (0)

Q) State whether the measured z-score reaches 0.2, counting equality as reaching it, for C=C/C=C/[C@@H]1C(=C)CN([C@@H](Cc2ccccc2)C(=O)OC)[C@H]1[C@@H](O)Cc1ccccc1
A) false (0)

Q) State whether the measured z-score reaches 0.2, counting equality as reaching it, for COC(=O)[C@@]1(Cc2ccc(F)cc2)[C@H]2c3cc(C(=O)N4CCCC4)n(CC4CC4)c3C[C@H]2CN1C(=O)c1ccccc1
A) false (0)

Q) State whether the measured z-score reaches 0.2, counting equality as reaching it, for [N-]=[N+]=Nc1ccccc1C[C@@]1(C(=O)O)N=C(c2ccc(OCCCO)cc2)O[C@@H]1c1ccccc1N=[N+]=[N-]
A) false (0)

Q) State whether the measured z-score reaches 0.2, counting equality as reaching it, for COCC1=C2[C@@H](CCc3ccccc3)OB(O)C[C@@H]2[C@@H]2C(=O)N(C)C(=O)[C@@H]2C1
A) false (0)

Q) State whether the measured z-score reaches 0.2, counting equality as reaching it, for O=C1C2C=CC(C(O)c3cc(C(F)(F)F)cc(C(F)(F)F)c3)N(Nc3ccccc3F)C2C(=O)N1c1ccccc1 (stereo not drawn)
A) false (0)

Q) State whether the measured z-score reaches 0.2, counting equality as reaching it, for C=C(C)[C@@H]1CC=C(C(O)C2C=CC3C(=O)N(c4ccccc4)C(=O)C3N2Nc2ccc(C#N)cc2)CC1 (stereo partly drawn)
A) false (0)

Q) State whether the measured z-score reaches 0.2, counting equality as reaching it, for C=CCNC(=O)[C@@H]1[C@H]2C(=O)O[C@H](c3ccccc3)[C@H](c3ccccc3)N2[C@H](c2ccc(OCCO)cc2)[C@@]12C(=O)N(C(=O)OCCOC)c1ccc(C#CCCO)cc12
A) true (1)

Q) State whether the measured z-score reaches 0.2, counting equality as reaching it, for COc1ccc([Si](C)(C)[C@H]2[C@H](CCO)O[C@@]3(C(=O)N(Cc4ccccc4)c4ccc(N5C(=O)c6ccccc6Oc6ccccc65)cc43)[C@@H]2C)cc1
A) false (0)

Q) State whether the measured z-score reaches 0.2, counting equality as reaching it, for O=C1C2C=CC(C(O)C=Cc3ccc([N+](=O)[O-])cc3)N(Nc3ccccc3)C2C(=O)N1c1ccccc1 (stereo not drawn)
A) false (0)

Q) State whether the measured z-score reaches 0.2, counting equality as reaching it, for COCCCNC(=O)[C@@]1(Sc2ccc(C)cc2)CC(=O)N(Cc2ccccc2Cl)[C@@H]1c1ccc(CO)cc1I
A) false (0)

Q) State whether the measured z-score reaches 0.2, counting equality as reaching it, for COCCOC(=O)N1C(=O)[C@@]2(c3cc(C#CCC(C(=O)OC)C(=O)OC)ccc31)[C@H](C(=O)NC[C@H](O)c1ccccc1)[C@H]1C(=O)O[C@H](c3ccccc3)[C@H](c3ccccc3)N1[C@@H]2c1ccc(OCCO)cc1
A) false (0)

Q) State whether the measured z-score reaches 0.2, counting equality as reaching it, for COCCOC(=O)N1C(=O)[C@@]2(c3cc(C#CCNC(N)=O)ccc31)[C@H](c1ccc(OCCO)cc1)N1[C@H](c3ccccc3)[C@H](c3ccccc3)OC(=O)[C@H]1[C@@H]2C(N)=O
A) true (1)

Q) State whether the measured z-score reaches 0.2, counting equality as reaching it, for NC(=O)[C@H]1[C@@H]2C(=O)O[C@@H](c3ccccc3)[C@@H](c3ccccc3)N2[C@@H](c2ccc(O)cc2)[C@]12C(=O)Nc1ccccc12
A) true (1)

Q) State whether the measured z-score reaches 0.2, counting equality as reaching it, for CCN(CC)c1ccc(N2CC=CC34O[C@@H]5C=CCCOC(=O)C5[C@H]3C(=O)N(CCO)[C@@H]4C2=O)cc1 (stereo partly drawn)
A) true (1)

Q) State whether the measured z-score reaches 0.2, counting equality as reaching it, for COCCOC(=O)N1C(=O)[C@@]2(c3cc(C#CCNC(N)=O)ccc31)[C@H](c1ccc(OCCO)cc1)N1[C@H](c3ccccc3)[C@H](c3ccccc3)OC(=O)[C@H]1[C@@H]2C(=O)NC[C@H](O)c1ccccc1
A) false (0)

Q) State whether the measured z-score reaches 0.2, counting equality as reaching it, for CCOC(=O)C1=C[C@@H](c2ccccc2)N(S(=O)(=O)c2ccc(C)cc2)[C@H]1c1ccccc1
A) false (0)

Q) State whether the measured z-score reaches 0.2, counting equality as reaching it, for CC(C)C[C@@H]1NC(=O)CNC(=O)[C@@]23C(=O)N[C@@H](Cc4ccccc4)C2[C@H](C)[C@@]2(C)O[C@H]2C3/C=C/C/C=C\CNC1=O (stereo partly drawn)
A) true (1)
